Test system: KM12 colon
Test: NCI tumour cell line growth inhibition, 48 h
measure-name: TGI

O=c1[nH]c(N/N=C\C(O)C(O)C(O)C(O)CO)nc2ccccc12 (stereo unspecified) :: > 100 µM
C(=Nc1nc(SCc2ccccc2)nc2[nH]ncc12)c1cccs1 :: > 100 µM
COc1ccc2nc3cc(Cl)ccc3c(NC(C)CCCN(CCCl)CCCl)c2c1 (stereo unspecified) :: 4.6 µM
O=C(c1ccc(Cl)cc1)C1OC12C(=O)Nc1c(Cl)cc(Cl)cc12 (stereo unspecified) :: > 100 µM
CC(C)(C)OC(=O)N(CCCCNC(=O)C(F)(F)F)CCCNC(=O)C(F)(F)F :: > 100 µM
[O]=[V]([OH])([OH])[OH] :: > 100 µM

Assay KM12 colon, sample "Oc1ccc(C(=C(Br)c2ccccc2)c2ccc(O)cc2)cc1" , TGI read: 13.5 µM

Assay KM12 colon, sample "CCOc1cnc(C(O)(c2ccccc2)c2ccccc2)o1" , TGI read: > 100 µM

Assay KM12 colon, sample "N#Cc1ccc(Sc2nc3ccccc3[nH]2)cc1" , TGI read: > 100 µM

Assay KM12 colon, sample Cc1ccc(S(=O)(=O)N(CC(O)COc2ccccc2)c2c(F)cccc2F)cc1 (stereo unspecified) , TGI read: 56.3 µM

Assay KM12 colon, sample "NNc1nnc(CCCCCCCCc2nnc(NN)n2N)n1N" , TGI read: > 100 µM

---

Known TGI of a selection of compounds
Tested on: RPMI-8226 leukemia
Test: NCI tumour cell line growth inhibition, 48 h

O=C1C2C3C=CC(C2C(=O)N1CO)C1C2C(=O)N(CO)C(=O)C2C31 (centres undefined) :: 46.5 µM
CC(C)[C@@H]1CC[C@]2(CO2)[C@@H]2C(=O)OCC(C(=O)O)=C[C@H]21 :: 0.635 µM
CC1=NN(c2nc(N)nc(C(C)Cl)n2)C(C)(C)C1 (centres undefined) :: > 100 µM
Cc1cc2nc3c(C#N)c(-c4ccccc4)/c(=C\Nc4ccc(F)cc4)c(=O)n3c2cc1C :: > 100 µM
COc1cc([C@@H]2c3cc4c(cc3[C@@H](Nc3ccc(NC(=O)c5cc([N+](=O)[O-])cn5C)cc3)[C@H]3COC(=O)[C@H]23)OCO4)cc(OC)c1O :: 0.116 µM

CC(=O)Oc1ccc(C2=Cc3ccc(OC(C)=O)cc3OC2C)cc1 (centres undefined) yielded TGI of 16 µM

"O=c1cc(Nc2cccc(O)c2)[nH]c(=O)[nH]1" yielded TGI of > 100 µM

"COC(=O)C1=C(C(=O)OC)C2(c3ccccc3)OC1(c1ccccc1)c1cc3ccccc3cc12" yielded TGI of 4.19 µM

"CSC(=O)/C=C1\SS/C(=C\C(=O)SC)S1" yielded TGI of 5.27 µM

Nc1nc(=S)c2ncn(C3OC(COP(=O)(O)O)C(O)C3O)c2[nH]1 (centres undefined) yielded TGI of > 100 µM

"Cc1c(C)c2c(c(N)c1C#N)C(=O)N(Cc1ccc(S(N)(=O)=O)cc1)C2=O" yielded TGI of > 100 µM

"COCCN(CCOC)c1nc(-c2ccccc2)nc2ccccc12" yielded TGI of 36 µM

---

Known GI50 of a selection of molecules
System: SN12C renal
Assay: NCI tumour cell line growth inhibition, 48 h

Some molecules with known GI50 results, for comparison:
CCCCS(=O)c1sc2nc(-c3cccs3)cc(-c3ccccc3)c2c1N (centres undefined) :: 24900 nM
COc1ccc(-c2nc3ccc(Cc4ccc5nc(-c6ccc(OC)cc6)[nH]c5c4)cc3[nH]2)cc1 :: 165 nM
COCCOC1=C(Cl)C(=O)c2ccccc2C1=O :: 3910 nM
Cc1ccc(NC(=O)c2cc(S(=O)(=O)Nc3nnc(-c4ccccc4)c(-c4ccccc4)n3)c(SCc3ccccc3)cc2Cl)cc1 :: 18200 nM

"C(=Nc1nc(SCc2ccccc2)nc2[nH]ncc12)c1cccs1" yielded GI50 of > 100000 nM

CCCCCC(=O)O[C@]1(C(C)=O)CCC2C3CCC4=CC(=O)CC[C@]4(C)C3CC[C@@]21C (some centres undefined) yielded GI50 of 1600 nM

"Cc1cc(Cl)nc(N(CCNc2ccnc3cc(Cl)ccc23)Cc2ccco2)n1" yielded GI50 of 1980 nM

"COc1cc(/C=C/c2cc(/C=C/c3ccc(O)c(OC)c3)n(C(=O)c3ccccc3Br)n2)ccc1O" yielded GI50 of 2220 nM

COc1ccc(C(O)c2cc3c(N)c(C(=O)Nc4cccc5ccccc45)sc3nc2C)cc1 (centres undefined) yielded GI50 of 629 nM
